# Tested on: Phytophthora infestans
# Type: in vivo
# MEASUREMENT CONDITIONS: tomato plants, preventive spray, 500 ppm of active ingredient, evaluated 7 days after inoculation; 0% = untreated control, 100% = no disease
ASSAY READOUT: efficacy (%)
Unit % implied. Number only.

Consider the reported efficacy for these compounds:
[
  {
    "COMPOUND": "CC#CC(C)NC(=C(C#N)C(=O)CCC)c1cccnc1Cl (racemic)",
    "efficacy [%]": 85
  },
  {
    "COMPOUND": "C#CC(C)NC(=C(C#N)C(=O)CCC)c1cccnc1Cl (racemic)",
    "efficacy [%]": 83
  },
  {
    "COMPOUND": "CCCC(=O)C(C#N)=C(NC(C)c1c(F)cccc1F)c1cn(C)nc1C(F)F (stereo not drawn)",
    "efficacy [%]": 95
  }
]

// query efficacy value for entry CCCC(=O)C(C#N)=C(NC(C)COC)c1cccnc1Cl (stereo not drawn)
100

// query efficacy value for entry CCCC(=O)C(C#N)=C(NC(C)CCC)c1cccnc1Cl (racemic)
80

// query efficacy value for entry CCCC(=O)C(C#N)=C(NC1(CC2CC2)CC1)c1cccnc1Cl
95

// query efficacy value for entry CCCC(=O)C(C#N)=C(NC(C)c1ccco1)c1cn(C)nc1C(F)F (racemic)
90

// query efficacy value for entry CCCC(=O)C(C#N)=C(NC(C)COC)c1cccnc1C (stereo not drawn)
100

// query efficacy value for entry CCCC(=O)C(C#N)=C(NC(C)c1ncc(C)s1)c1cccnc1Cl (racemic)
95

// query efficacy value for entry CCCC(=O)C(C#N)=C(NC1CCC1)c1cn(C)nc1C(F)F
90

// query efficacy value for entry CCCC(=O)C(C#N)=C(NC1CCC1)c1cccnc1Cl
80

----------
# MEASUREMENT CONDITIONS: method [a]: LC-MS at pH 2.7, 0.1% formic acid in water / acetonitrile, linear gradient 10% to 95% acetonitrile
Measured LogP, listed per entry for reference.

Consider the reported LogP for these molecules:
[
  {
    "MOLECULE": "COC(C)C(=O)C(C#N)=C(NC(C)C(C)C)c1cccnc1Cl (stereo not drawn) [Compound 67]",
    "LogP": "2.70^[a]"
  },
  {
    "MOLECULE": "CCCC(=O)C(C#N)=C(NC(C)CC1CC1)c1cccnc1Cl (racemic) [Compound 118]",
    "LogP": "3.63^[a]"
  },
  {
    "MOLECULE": "CC#CC(C)NC(=C(C#N)C(=O)CCC)c1cn(C)nc1C(F)F (racemic) [Compound 125]",
    "LogP": "2.98^[a]"
  },
  {
    "MOLECULE": "Cc1cc(C(NC(C)C(C)C)=C(C#N)C(=O)CC2CC2)n(C(F)F)n1 (stereo not drawn) [Compound 93]",
    "LogP": "3.87^[a]"
  },
  {
    "MOLECULE": "CC(C)C(C)NC(=C(C#N)C(=O)CNC1CC1)c1cn(C)nc1C(F)F (stereo not drawn) [Compound 58]",
    "LogP": "1.78^[a]"
  },
  {
    "MOLECULE": "CC(NC(=C(C#N)C(=O)C1CC1)c1cn(C)nc1C(F)F)C1CC1 (stereo not drawn) [Compound 59]",
    "LogP": "2.90^[a]"
  }
]

// query LogP value for entry CC(C)C(=O)C(C#N)=C(NC(C)C(C)C)c1cccnc1Cl (stereo not drawn) [Compound 9]
3.60^[a]

// query LogP value for entry CCCC(=O)C(C#N)=C(NC(C)c1nc(C)c(C)s1)c1cn(C)nc1C(F)F (racemic) [Compound 123]
2.92^[a]

// query LogP value for entry COCC(C)NC(=C(C#N)C(=O)CC1CC1)c1cc(C)nn1C(F)F (stereo not drawn) [Compound 96]
3.11^[a]

// query LogP value for entry CCCC(=O)C(C#N)=C(NC(C)c1c(F)cccc1F)c1cccnc1Cl (stereo not drawn) [Compound 106]
3.46^[a]

// query LogP value for entry CC(C)C(C)NC(=C(C#N)C(=O)CCCCl)c1cccnc1Cl (stereo not drawn) [Compound 74]
3.63^[a]
